# System: 786-0
# ASSAY_TEXT: Cytotoxicity against human 786-0 cells at 10^-4 M after 48 hrs by SRB assay
# Format: functional
# SETUP_CONDITIONS: 786-0, 48 h, read-out: GI
REPORTED_METRIC: inhibition of growth at 100 µM (%)
Just the number in %, nothing appended.

- TEST_SMILES: "C#CCN(Cc1nc2cc(C(F)(F)F)ccc2nc1-c1ccccc1)c1ccc(F)c(F)c1"
  inhibition of growth at 100 µM, %: 44
- TEST_SMILES: "C#CCN(Cc1nc2cc(C(F)(F)F)ccc2nc1-c1ccccc1)c1ccc(OC(F)(F)F)cc1"
  inhibition of growth at 100 µM, %: 46
- TEST_SMILES: "C#CCN(Cc1nc2cc(C(F)(F)F)ccc2nc1-c1ccccc1)c1ccc(F)cc1"
  inhibition of growth at 100 µM, %: 132
- TEST_SMILES: "CCN(Cc1nc2cc(C(F)(F)F)ccc2nc1-c1ccccc1)c1ccc(OC)c(OC)c1"
  inhibition of growth at 100 µM, %: 191

Item: C#CCN(Cc1nc2cc(C(F)(F)F)ccc2nc1-c1ccccc1)c1ccc(C)cc1 | inhibition of growth at 100 µM: 184

###

# System: NCI-H23
# ASSAY_TEXT: Cytotoxicity against human NCI-H23 cells at 10^-4 M after 48 hrs by SRB assay
# Format: functional
# SETUP_CONDITIONS: NCI-H23, 48 h, read-out: GI
REPORTED_METRIC: inhibition of growth at 100 µM (%)
Just the number in %, nothing appended.

Item: C#CCN(Cc1nc2cc(C(F)(F)F)ccc2nc1-c1ccccc1)c1ccc(F)c(F)c1 | inhibition of growth at 100 µM: 52

Item: C#CCN(Cc1nc2cc(C(F)(F)F)ccc2nc1-c1ccccc1)c1ccc(OC(F)(F)F)cc1 | inhibition of growth at 100 µM: 60

Item: C#CCN(Cc1nc2cc(C(F)(F)F)ccc2nc1-c1ccccc1)c1ccc(C)cc1 | inhibition of growth at 100 µM: 196

Item: C#CCN(Cc1nc2cc(C(F)(F)F)ccc2nc1-c1ccccc1)c1ccc(F)cc1 | inhibition of growth at 100 µM: 31

Item: CCN(Cc1nc2cc(C(F)(F)F)ccc2nc1-c1ccccc1)c1ccc(OC)c(OC)c1 | inhibition of growth at 100 µM: 158

###

# System: MCF7
# ASSAY_TEXT: Cytotoxicity against human MCF7 cells assessed as cell growth at 10^-4 M after 48 hrs by alamar blue assay relative to untreated control
# Assay type: functional
# SETUP_CONDITIONS: MCF7, 48 h, read-out: Activity
Quick rule: growth at 100 µM of at least 60% means Y, below that means N.

- TEST_SMILES: "C#CCN(Cc1nc2cc(C(F)(F)F)ccc2nc1-c1ccccc1)c1ccc(OC)cc1"
  QUALITATIVE_LABEL: "Y"
- TEST_SMILES: "C#CCN(Cc1nc2cc(C(F)(F)F)ccc2nc1-c1ccccc1)c1ccc(C)cc1"
  QUALITATIVE_LABEL: "N"
- TEST_SMILES: "C#CCN(Cc1nc2cc(C(F)(F)F)ccc2nc1-c1ccccc1)c1ccccc1Cl"
  QUALITATIVE_LABEL: "Y"
- TEST_SMILES: "COc1ccc(N(C)Cc2nc3cc(C(F)(F)F)ccc3nc2-c2ccccc2)cc1"
  QUALITATIVE_LABEL: "Y"

Query compound follows.
Q: Is growth at 100 µM at least 60%? Consider CCN(Cc1nc2cc(C(F)(F)F)ccc2nc1-c1ccccc1)c1ccc(Cl)cc1
Result: N
